src = the supplement of paper PMC6897291

System: U-2932
Experiment: growth inhibition by drug alone (1 - RLU/untreated control) (fraction); higher = stronger inhibition
Details: 1000 nM; time (day): 6; 177Lu-lilotomab satetraxetan 0 ug/ml
Outcome: YES for growth inhibition by drug alone of at least -0.08; NO for anything lower.

See these solved cases before continuing.
O=P1(N(CCCl)CCCl)NCCCO1 (configuration not stated) [Cyclophosphamide monohydrate] ... YES
N[C@@H](Cc1ccc(N(CCCl)CCCl)cc1)C(=O)O [Melphalan] ... NO
Cc1ccccc1-n1c(Cn2cnc3c(N)ncnc32)nc2cccc(C)c2c1=O ... YES
CC[C@@H](C(=O)[C@@H](C)[C@@H](O)[C@H](C)[C@@H]1O[C@@H]([C@@H](CC)C(=O)O)CC[C@@H]1C)[C@H]1O[C@]2(C=C[C@@H](O)[C@]3(CC[C@@](C)([C@H]4CC[C@](O)(CC)[C@H](C)O4)O3)O2)[C@H](C)C[C@@H]1C [Salinomycin (Procoxacin)] ... YES
C=C1C[C@@H]2[C@H](CC[C@]3(C)C(=O)CC[C@@H]23)[C@@]2(C)C=CC(=O)C=C12 [Exemestane] ... YES
CN(C)CCN(C)CCc1ccc(Cl)c(Cl)c1 ... NO

// switching to the query compound
Quick check: does Cn1cc(C2=C(c3cn(C4CCN(Cc5ccccn5)CC4)c4ccccc34)C(=O)NC2=O)c2ccccc21 have growth inhibition by drug alone greater than or equal to -0.08? YES

* * *

System: U-2932
Assay: growth inhibition by drug alone (1 - RLU/untreated control) (fraction); higher = stronger inhibition
Conditions: 10 nM; time (day): 3; 177Lu-lilotomab satetraxetan 0 ug/ml
Outcome: criterion met for growth inhibition by drug alone of at least 0.01; criterion not met for anything lower.

Quick check: does C=C1C[C@@H]2[C@H](CC[C@]3(C)C(=O)CC[C@@H]23)[C@@]2(C)C=CC(=O)C=C12 have growth inhibition by drug alone greater than or equal to 0.01? criterion met

Quick check: does CN(C)CCN(C)CCc1ccc(Cl)c(Cl)c1 have growth inhibition by drug alone greater than or equal to 0.01? criterion not met

Quick check: does CC(C)[C@]12O[C@H]1[C@@H]1O[C@]13[C@]1(O[C@H]1C[C@H]1C4=C(CC[C@@]13C)C(=O)OC4)[C@@H]2O [Triptolide] have growth inhibition by drug alone greater than or equal to 0.01? criterion met

Quick check: does O=P1(N(CCCl)CCCl)NCCCO1 (stereo unspecified) [Cyclophosphamide monohydrate] have growth inhibition by drug alone greater than or equal to 0.01? criterion not met

Quick check: does O=C(Oc1ccc([N+](=O)[O-])cc1)N1CCC(C(O)(c2ccc3c(c2)OCO3)c2ccc3c(c2)OCO3)CC1 have growth inhibition by drug alone greater than or equal to 0.01? criterion met

Quick check: does CC(=O)Nc1ccc(OC[C@](C)(O)C(=O)Nc2ccc([N+](=O)[O-])c(C(F)(F)F)c2)cc1 have growth inhibition by drug alone greater than or equal to 0.01? criterion met

* * *

System: U-2932
Experiment: growth inhibition by drug alone (1 - RLU/untreated control) (fraction); higher = stronger inhibition
Details: 10 nM; time (day): 5; 177Lu-lilotomab satetraxetan 0 ug/ml
Outcome: fulfilled for growth inhibition by drug alone of at least -0.03; not fulfilled for anything lower.

See these solved cases before continuing.
CC(C)[C@]12O[C@H]1[C@@H]1O[C@]13[C@]1(O[C@H]1C[C@H]1C4=C(CC[C@@]13C)C(=O)OC4)[C@@H]2O [Triptolide] ... fulfilled
CC(O)(CS(=O)(=O)c1ccc(F)cc1)C(=O)Nc1ccc(C#N)c(C(F)(F)F)c1 (stereo unspecified) [Bicalutamide (Casodex)] ... not fulfilled
C=C1C[C@@H]2[C@H](CC[C@]3(C)C(=O)CC[C@@H]23)[C@@]2(C)C=CC(=O)C=C12 [Exemestane] ... not fulfilled
CC[C@@H](C(=O)[C@@H](C)[C@@H](O)[C@H](C)[C@@H]1O[C@@H]([C@@H](CC)C(=O)O)CC[C@@H]1C)[C@H]1O[C@]2(C=C[C@@H](O)[C@]3(CC[C@@](C)([C@H]4CC[C@](O)(CC)[C@H](C)O4)O3)O2)[C@H](C)C[C@@H]1C [Salinomycin (Procoxacin)] ... fulfilled
CC1=C2C[C@H]3[C@@H](CC=C4C[C@@H](O)CC[C@@]43C)[C@@H]2CC[C@]12O[C@@H]1C[C@H](C)CN[C@H]1[C@H]2C [Cyclopamine] ... fulfilled

// switching to the query compound
Quick check: does O=C(Oc1ccc([N+](=O)[O-])cc1)N1CCC(C(O)(c2ccc3c(c2)OCO3)c2ccc3c(c2)OCO3)CC1 have growth inhibition by drug alone greater than or equal to -0.03? fulfilled

* * *

System: RIVA
Test: growth inhibition by drug plus 177Lu-lilotomab satetraxetan (1 - RLU/untreated control) (fraction); higher = stronger inhibition
Settings: 10 nM; time (day): 6; 177Lu-lilotomab satetraxetan 0.5 ug/ml
Outcome: Condition met for growth inhibition by drug plus 177Lu-lilotomab satetraxetan of at least 0.5; Condition not met for anything lower.

See these solved cases before continuing.
CN(C)CCN(C)CCc1ccc(Cl)c(Cl)c1 ... Condition not met
O=C(Oc1ccc([N+](=O)[O-])cc1)N1CCC(C(O)(c2ccc3c(c2)OCO3)c2ccc3c(c2)OCO3)CC1 ... Condition met
CC(C)[C@]12O[C@H]1[C@@H]1O[C@]13[C@]1(O[C@H]1C[C@H]1C4=C(CC[C@@]13C)C(=O)OC4)[C@@H]2O [Triptolide] ... Condition met

Quick check: does O=C(O)c1nn(Cc2ccc(Cl)cc2Cl)c2ccccc12 have growth inhibition by drug plus 177Lu-lilotomab satetraxetan greater than or equal to 0.5? Condition met

* * *

Consider the following compounds and their measured growth inhibition by drug plus 177Lu-lilotomab satetraxetan readings.
System: RIVA
Assay: growth inhibition by drug plus 177Lu-lilotomab satetraxetan (1 - RLU/untreated control) (fraction); higher = stronger inhibition
Conditions: 10 nM; time (day): 5; 177Lu-lilotomab satetraxetan 0.5 ug/ml
Response field accepts a number only; no unit should be typed.

N[C@@H](Cc1ccc(N(CCCl)CCCl)cc1)C(=O)O ... 0.516
CCC1(c2ccc(N)cc2)CCC(=O)NC1=O (centres undefined) [Aminoglutethimide (Cytadren)] ... 0.538
O=C(Oc1ccc([N+](=O)[O-])cc1)N1CCC(C(O)(c2ccc3c(c2)OCO3)c2ccc3c(c2)OCO3)CC1 ... 0.518

Then this compound:
Give the reported value of growth inhibition by drug plus 177Lu-lilotomab satetraxetan for this record: O=P1(N(CCCl)CCCl)NCCCO1 (centres undefined) [Cyclophosphamide monohydrate] 0.502

* * *

Test system: U-2932
Test: growth inhibition by drug plus 177Lu-lilotomab satetraxetan (1 - RLU/untreated control) (fraction); higher = stronger inhibition
Conditions: 10 nM; time (day): 4; 177Lu-lilotomab satetraxetan 1 ug/ml
Consider the following molecules and their measured growth inhibition by drug plus 177Lu-lilotomab satetraxetan readings.

Some molecules with known growth inhibition by drug plus 177Lu-lilotomab satetraxetan results, for comparison:
O=P1(N(CCCl)CCCl)NCCCO1 (centres undefined) [Cyclophosphamide monohydrate] ... -0.00591
O=C(Oc1ccc([N+](=O)[O-])cc1)N1CCC(C(O)(c2ccc3c(c2)OCO3)c2ccc3c(c2)OCO3)CC1 ... 0.00325
Cc1cc2c(C(C)C)c(O)c(O)c(C=O)c2c(O)c1-c1c(C)cc2c(C(C)C)c(O)c(O)c(C=O)c2c1O ... -0.0678

Then this molecule:
Give the reported value of growth inhibition by drug plus 177Lu-lilotomab satetraxetan for this record: CC[C@@H](C(=O)[C@@H](C)[C@@H](O)[C@H](C)[C@@H]1O[C@@H]([C@@H](CC)C(=O)O)CC[C@@H]1C)[C@H]1O[C@]2(C=C[C@@H](O)[C@]3(CC[C@@](C)([C@H]4CC[C@](O)(CC)[C@H](C)O4)O3)O2)[C@H](C)C[C@@H]1C 0.111

* * *

System: RIVA
Assay: growth inhibition by drug alone (1 - RLU/untreated control) (fraction); higher = stronger inhibition
Conditions: 100 nM; time (day): 4; 177Lu-lilotomab satetraxetan 0 ug/ml
result-type: growth inhibition by drug alone
Response field accepts a number only; no unit should be typed.

Some compounds with known growth inhibition by drug alone results, for comparison:
CC(=O)Nc1ccc(OC[C@](C)(O)C(=O)Nc2ccc([N+](=O)[O-])c(C(F)(F)F)c2)cc1 ... -0.219
N.N.[Cl][Pt][Cl] [Cisplatin] ... -0.0804
CC(C)[C@]12O[C@H]1[C@@H]1O[C@]13[C@]1(O[C@H]1C[C@H]1C4=C(CC[C@@]13C)C(=O)OC4)[C@@H]2O [Triptolide] ... 0.934
CCC1(c2ccc(N)cc2)CCC(=O)NC1=O (stereo not drawn) [Aminoglutethimide (Cytadren)] ... -0.484
N[C@@H](Cc1ccc(N(CCCl)CCCl)cc1)C(=O)O ... -0.175

Give the reported value of growth inhibition by drug alone for this record: Cn1cc(C2=C(c3cn(C4CCN(Cc5ccccn5)CC4)c4ccccc34)C(=O)NC2=O)c2ccccc21 -0.319

Give the reported value of growth inhibition by drug alone for this record: CC[C@@H](C(=O)[C@@H](C)[C@@H](O)[C@H](C)[C@@H]1O[C@@H]([C@@H](CC)C(=O)O)CC[C@@H]1C)[C@H]1O[C@]2(C=C[C@@H](O)[C@]3(CC[C@@](C)([C@H]4CC[C@](O)(CC)[C@H](C)O4)O3)O2)[C@H](C)C[C@@H]1C 0.126

Give the reported value of growth inhibition by drug alone for this record: Cc1cc2c(C(C)C)c(O)c(O)c(C=O)c2c(O)c1-c1c(C)cc2c(C(C)C)c(O)c(O)c(C=O)c2c1O -0.143
